# Target or system: human TREK-1 (Homo sapiens, UniProt O95069)
# Construct: expressed in transfected cells
# Assay protocol: TREK-1 Thallium (Tl+) flux assay, Method 1
# Type: cell-based
# Condition details: TREK-1 Thallium (Tl+) flux assay; values without footnote *12 are Method 1
Measured endpoint: IC50 (nM)
Give the value in nM but do not write nM after it.

So for Cc1cc(C#Cc2cccs2)cnc1NC(=O)c1c(Cl)cnn1[C@H]1C[C@@H]2CN(C(=O)C(C)C)C[C@@H]2C1 , the logged IC50 turned out to be 290

// sample CC(C)C(=O)N1CC[C@@H](Cn2ncc(Cl)c2C(=O)Nc2ncc(C#Cc3ccccc3)cc2F)[C@@H](F)C1 , its IC50 was 230

Entry under test: Cc1cc(C#Cc2ccccc2)cnc1NC(=O)c1c(Cl)cnn1C[C@H]1CCOC1 . Its IC50 was 240

# compound CC(=O)N1CCC(n2ncc(Cl)c2C(=O)Nc2ncc(C#Cc3ccc(F)cc3)cc2C)[C@H](F)C1 (stereo in doubt) ; its IC50 = 110

Lab book: IC50 of CC1CC1C(=O)N1CCC(n2ncc(Cl)c2C(=O)Nc2ncc(C#Cc3ccccc3)cc2F)CC1 (centres unmarked) noted as 180

The compound identified as Cc1cc(C#Cc2cccc(F)c2)cnc1NC(=O)c1c(Cl)cnn1C1CCN(C(=O)C(C)C)CC1 registered its IC50 at 240

Further cases:
Lab note: CCC(=O)N1CC(n2ncc(Cl)c2C(=O)Nc2ncc(C#Cc3ccccc3)cc2C)C1 gave IC50 of 220

====

# Target or system: human TREK-1 (Homo sapiens, UniProt O95069)
# Construct: expressed in transfected cells
# Assay protocol: TREK-1 Thallium (Tl+) flux assay, Method 1
# Assay type: cell-based
# Condition details: TREK-1 Thallium (Tl+) flux assay; no *^12 (Method 2) mark on these rows
Entries annotated with measured IC50
Use nM as the unit, but write only the number.

Measured IC50, O=C(Nc1ncc(C#Cc2ccccc2)cc1F)c1c(Cl)cnn1-c1ccc2c(c1)OCO2 [Compound 227] : 350

The recorded IC50 for O=C(Nc1ncc(C#Cc2ccccc2)cc1F)c1c(Cl)cnn1CC1CCCO1 (stereo not drawn) [Compound 366] is 930

IC50 reading for Cc1cc(C#Cc2ccccc2)cnc1NC(=O)c1c(Cl)cnn1[C@H]1C[C@H](NC(=O)OC(C)(C)C)C1 [Compound 292] : 520

Query Cc1cc(C#Cc2ccccc2)cnc1NC(=O)c1c(Cl)cnn1CC(C)(C)C#N [Compound 276] yields IC50 of 480

Reported IC50 of CC(=O)N1CCC(n2ncc(Cl)c2C(=O)Nc2ncc(C#Cc3ccccc3)cc2C)C1 (stereo not drawn) [Compound 238] : 370

====

Quick reference: IC50 of the listed items.
# Target or system: human TREK-1 (Homo sapiens, UniProt O95069)
# Construct: expressed in transfected cells
# Assay protocol: TREK-1 Thallium (Tl+) flux assay, Method 1
# Format: cell-based
# Condition details: TREK-1 Thallium (Tl+) flux assay; no *^12 (Method 2) mark on these rows
Answer with a number only, understood to be in µM.

Lab note: measured IC50 of CC(C)(C)OC(=O)N1CC2(CC(n3ncc(Cl)c3C(=O)Nc3ncc(C#Cc4ccccc4)cc3F)C2)C1 was 0.67

Lab book: IC50 of Cc1cc(C#Cc2ccccc2)cnc1NC(=O)c1c(Cl)cnn1C(C)CNC(=O)OC(C)(C)C (stereo not drawn) noted as 0.37

---
For reference, reported IC50 for Cc1cc(C#Cc2ccccc2)cnc1NC(=O)c1c(Cl)cnn1C[C@@H]1CCN(C(=O)C(C)C)C[C@H]1F stands at 0.34

====

# Target or system: human TREK-1 (Homo sapiens)
# Construct: expressed in transfected cells
# Sequence (O95069 1-426): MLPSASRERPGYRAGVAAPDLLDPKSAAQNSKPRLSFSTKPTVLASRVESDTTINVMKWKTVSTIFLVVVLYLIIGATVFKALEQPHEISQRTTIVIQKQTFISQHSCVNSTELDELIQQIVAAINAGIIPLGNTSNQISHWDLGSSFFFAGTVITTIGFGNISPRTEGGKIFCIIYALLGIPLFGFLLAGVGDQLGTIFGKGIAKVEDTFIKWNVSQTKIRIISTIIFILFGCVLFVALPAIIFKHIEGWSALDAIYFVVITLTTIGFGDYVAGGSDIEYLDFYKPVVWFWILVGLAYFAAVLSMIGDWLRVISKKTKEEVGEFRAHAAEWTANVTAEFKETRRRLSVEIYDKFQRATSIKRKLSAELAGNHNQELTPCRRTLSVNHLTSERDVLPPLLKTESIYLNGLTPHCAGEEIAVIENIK
# Assay protocol: TREK-1 Thallium (Tl+) flux assay, Method 1
# Format: cell-based
# Condition details: TREK-1 Thallium (Tl+) flux assay; values without footnote *12 are Method 1
# Protocol: The term “thallium flux assay” herein refers to a fluorescence-based assay used to monitor the activity of TREK channels. Thallium is a congener of potassium that readily fluxes through the pore of TREK channels. Thallium flux is measured using a commercially available, thallium-sensitive fluorescent dye called Thallos. The detail method is described below. […] ΔRatio=(fluorescence intensity at 25 seconds after thallium addition)/(average of fluorescent intensity before thallium addition)
Measured endpoint: IC50 (nM)
Give a bare numeral; the unit nM is implied.

IC50 in this record for CC(=O)N1CC2(CC(n3ncc(Cl)c3C(=O)Nc3ncc(C#Cc4ccccc4)cc3C)C2)C1 : 270

// IC50 value for Cc1cc(C#Cc2ccccc2)cc(F)c1NC(=O)c1c(Cl)cnn1CCCC#N : 290

For reference, reported IC50 for CC(=O)N1CCCC(n2ncc(Cl)c2C(=O)Nc2ncc(C#Cc3ccccc3)cc2C)CC1 (centres unmarked) stands at 220

Others:
# compound Cc1cc(C#Cc2ccccc2)cnc1NC(=O)c1c(Cl)cnn1CCC1CCN(C(=O)C2CC2)CC1 ; its IC50 = 270

Form field IC50, entry CC(=O)N[C@H]1C[C@@H](n2ncc(Cl)c2C(=O)Nc2ncc(C#Cc3ccccc3)cc2F)C1 : 180

IC50 in this record for Cc1cc(C#Cc2cccs2)cnc1NC(=O)c1c(Cl)cnn1[C@H]1CCOC1 : 180

In plain terms, Cc1cc(C#Cc2cccc(F)c2)cnc1NC(=O)c1c(Cl)cnn1CC1CCN(C(=O)C2CC2)CC1 has a documented IC50 of 270

For reference, reported IC50 for CC(C)C(=O)N1CCC(F)(Cn2ncc(Cl)c2C(=O)Nc2ncc(C#Cc3ccccc3)cc2F)CC1 stands at 290

====

Each entry below carries its recorded inhibition at 30 µM.
# Target or system: human TREK-1 (Homo sapiens)
# Construct: expressed in transfected cells
# Sequence (O95069 1-426): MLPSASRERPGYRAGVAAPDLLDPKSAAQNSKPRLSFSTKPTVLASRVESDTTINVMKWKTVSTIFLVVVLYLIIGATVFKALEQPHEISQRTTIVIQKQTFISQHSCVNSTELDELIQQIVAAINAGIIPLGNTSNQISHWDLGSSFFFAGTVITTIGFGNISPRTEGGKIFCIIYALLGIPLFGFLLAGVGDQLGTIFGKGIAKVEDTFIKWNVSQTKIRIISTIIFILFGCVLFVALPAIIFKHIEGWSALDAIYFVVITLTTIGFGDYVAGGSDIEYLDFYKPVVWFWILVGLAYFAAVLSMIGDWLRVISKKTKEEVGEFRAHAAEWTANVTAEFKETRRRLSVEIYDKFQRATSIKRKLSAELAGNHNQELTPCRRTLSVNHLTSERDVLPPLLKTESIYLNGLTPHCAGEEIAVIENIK
# Assay protocol: TREK-1 Thallium (Tl+) flux assay, Method 1
# Format: cell-based
# Condition details: read-out: Tl^+ Assay % inhibition at 30 uM (Minus value indicates activation of TREK-1); at 30 uM; CHO-K1 cells stably expressing human TREK-1; minus = activation
State just the number; it will be interpreted in %.

Record excerpt, results attached:
Query CC(=O)N1CCC(CCn2cc(Cl)c(C(=O)Nc3ncc(C#Cc4cccs4)cc3C)n2)CC1 yields inhibition at 30 µM of -135

Measured inhibition at 30 µM of CC(=O)N1CCC(CCn2cc(Cl)c(C(=O)Nc3ncc(C#Cc4cccs4)cc3F)n2)CC1 : -107

CC(=O)N1CCC(CCn2cc(Cl)c(C(=O)Nc3ncc(C#Cc4ccccc4F)cc3C)n2)CC1 yielded inhibition at 30 µM of -115

More entries:
Recorded result, Cc1cc(C#Cc2ccccc2F)cnc1NC(=O)c1nn(CCC2CCN(C(=O)C3CC3)CC2)cc1Cl , inhibition at 30 µM: -123

====

The following molecules are shown together with reported pIC50 values.
# Target or system: human TREK-1 (Homo sapiens, UniProt O95069)
# Construct: expressed in transfected cells
# Assay protocol: TREK-1 Thallium (Tl+) flux assay, Method 1
# Assay type: cell-based
# Condition details: TREK-1 Thallium (Tl+) flux assay; no *^12 (Method 2) mark on these rows
To interpret pIC50, take it as minus log10 of a concentration measured in moles per litre.

Some solved cases for reference:
Field pIC50 (entry Cc1cc(C#Cc2ccccc2)cnc1NC(=O)c1c(Cl)cnn1C[C@H]1C[C@@H]2CC[C@H]1O2 (racemic) [Compound 259] ) reads 6.37

# molecule Cc1cc(C#Cc2ccccc2)cnc1NC(=O)c1c(Cl)cnn1CC1CCCOC1 (centres unmarked) [Compound 280] ; its pIC50 = 6.31

Per the records, this molecule ( COc1c(F)cc(-c2cnc(NC(=O)c3c(Cl)cnn3C3CCN(C(=O)OC(C)(C)C)CC3)c(C)c2)cc1F [Compound 386] ) has pIC50 equal to 6.05

Next:
Documented pIC50 of Cc1cc(C#Cc2ccc(F)cc2)cnc1NC(=O)c1c(Cl)cnn1CC1CCCN(C(=O)C2CC2)C1 (centres unmarked) [Compound 271] : 6.34

# pIC50 of Cc1cc(C#Cc2ccccc2)cnc1NC(=O)c1c(Cl)nn(C)c1-c1ccc2c(cnn2C)c1 [Compound 364] = 6.04
